# experiment.description: LAP4-GFP expression modulators in yeast, confirmation, cell-based, cherry picks, flow cytometry, mother/daughter gates (AID 2271);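 note: ratio of sample to DMSO plate mean so 100% equals DMSO level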
# condition.summary: S. cerevisiae LAP4-GFP strain, 3 h, measured here: mother cell gate response, at 10 µM, stronger effect = higher value, 100 means same as DMSO control
recorded.metric: GFP response relative to DMSO (%)
Give just the numeric value; % need not be written.

Q: Read off the recorded GFP response relative to DMSO for "O=C(COc1ccccc1[N+](=O)[O-])Nc1ccc(NC(=O)c2cc3ccccc3o2)cc1"
Result: 88.9

Q: Read off the recorded GFP response relative to DMSO for "COc1cc(NC(=O)c2c(OC)cccc2OC)ccc1NC(=O)c1cc2ccccc2o1"
Result: 108

Q: Read off the recorded GFP response relative to DMSO for "CCCCC(=O)O[C@]1(C(=O)CO)CC[C@H]2[C@@H]3CCC4=CC(=O)CC[C@]4(C)[C@H]3[C@@H](O)C[C@@]21C"
Result: 99.3

Q: Read off the recorded GFP response relative to DMSO for COc1ccc(C2c3c(oc4ccccc4c3=O)C(=O)N2CCN2CCOCC2)cc1OC (centres undefined)
Result: 114

Q: Read off the recorded GFP response relative to DMSO for "CC(=O)Oc1c(C)cc(Cl)cc1C(=O)Nc1ccc([N+](=O)[O-])cc1Cl"
Result: 93

Q: Read off the recorded GFP response relative to DMSO for "COc1ccc(C(=O)Nc2cccc(C)c2)cc1"
Result: 107

Q: Read off the recorded GFP response relative to DMSO for "NC(=O)c1ccc(Oc2ccc(-c3nnco3)cc2)c([N+](=O)[O-])c1"
Result: 94.2

Q: Read off the recorded GFP response relative to DMSO for Cc1ccc(N2CC(C(=O)OCc3nnc(-c4ccccc4)o3)CC2=O)cc1 (centres undefined)
Result: 101

Q: Read off the recorded GFP response relative to DMSO for CCCc1[nH]nc2c1C(c1ccc(OCCN3CCOCC3)c(OCC)c1)C(C#N)=C(N)O2 (centres undefined)
Result: 91.1
